assay: APR_HepG2_CellLoss_24hr: Apredica 24-hour HepG2 Assay for Cell Loss (AID 2282908); conditions: high-content imaging
Active and inactive are the calls of the source. Rule for the calls: active = hit-call score of the fitted dose curve at least 0.9, where 1 is the maximum; inactive = score below 0.9.
Classes used: Yes for active, No for inactive

{"compound": "O=[N+]([O-])c1ccc(Cl)c(Cl)c1", "assignedClass": "No"}
{"compound": "OCC1CO1 (stereo unspecified)", "assignedClass": "No"}
{"compound": "Cc1cccc(N)c1", "assignedClass": "No"}
{"compound": "CC(Cc1ccc(OCC(=O)O)cc1)NCC(O)c1csc(C(F)(F)F)n1 (stereo unspecified)", "assignedClass": "No"}
{"compound": "CC(C)(C)OOC(C)(C)C", "assignedClass": "No"}
{"compound": "CN(C)C(=O)Cl", "assignedClass": "No"}
{"compound": "Nc1cc2c3c(c1)C(c1ccccc1)=N[C@@H](NC(=O)c1cccnc1)C(=O)N3CC2", "assignedClass": "No"}
{"compound": "Cc1ccc([N+](=O)[O-])cc1C", "assignedClass": "No"}
{"compound": "c1nc[nH]n1", "assignedClass": "No"}
{"compound": "CCOP(=S)(OCC)SCSCC", "assignedClass": "No"}
{"compound": "CCC(C)(C)c1ccc(O)cc1", "assignedClass": "Yes"}
{"compound": "CCOS(=O)(=O)OCC", "assignedClass": "No"}
{"compound": "CCNc1nc(Cl)nc(NC(C)(C)C)n1", "assignedClass": "No"}
{"compound": "[N-]=[N+]=[N-]", "assignedClass": "No"}
{"compound": "Nc1ccc2ccccc2c1", "assignedClass": "No"}
{"compound": "CCCCN(CCCC)SN(C)C(=O)Oc1cccc2c1OC(C)(C)C2", "assignedClass": "Yes"}
{"compound": "CCN(CC)c1ccccc1", "assignedClass": "No"}
{"compound": "CCCN(CCC)c1c([N+](=O)[O-])cc(C(C)C)cc1[N+](=O)[O-]", "assignedClass": "Yes"}
{"compound": "Cc1ccc(O)cc1C", "assignedClass": "No"}
{"compound": "ClC1=C(Cl)C2(Cl)C3C(Cl)C(Cl)CC3C1(Cl)C2(Cl)Cl (stereo unspecified)", "assignedClass": "Yes"}
{"compound": "CSC(C)(C)C=NO", "assignedClass": "No"}

All values here come from PubChem BioAssay (EPA / NIEHS).
